B1: LINE1-full (parent)
chain: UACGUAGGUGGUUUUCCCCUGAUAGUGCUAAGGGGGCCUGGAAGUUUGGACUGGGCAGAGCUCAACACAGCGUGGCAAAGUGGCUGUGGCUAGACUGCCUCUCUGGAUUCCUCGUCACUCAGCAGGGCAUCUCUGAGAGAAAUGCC

variants of: B1; assay: self-cleavage, relative activity (ratio to wild type); higher = more cleavage; in vitro, sequencing; the parent is a self-cleaving ribozyme
Each record gets a class by self-cleavage: small value = under 0.1, mid value = from 0.1 up to 1, large value = 1 and over

For this variant, which bin applies? U13C G86A
mid value

For this variant, which bin applies? G60U U85C
small value

For this variant, which bin applies? G80A U100C
large value

For this variant, which bin applies? U46C A50G
large value

For this variant, which bin applies? U12C U46G
mid value

For this variant, which bin applies? A65U U85C
small value

For this variant, which bin applies? U47C A124U
large value

For this variant, which bin applies? C98G G125A
small value

For this variant, which bin applies? U52A C111A
large value

For this variant, which bin applies? A2U C111A
mid value

For this variant, which bin applies? G58A U130C
small value

For this variant, which bin applies? U13G U20A
mid value

For this variant, which bin applies? A59G A138U
mid value

For this variant, which bin applies? U26C A77C
large value

For this variant, which bin applies? G58U G80A
small value

For this variant, which bin applies? U81C U100C
large value

For this variant, which bin applies? A79G A121U
large value

For this variant, which bin applies? U46A A78U
large value

For this variant, which bin applies? U39C A142G
large value

For this variant, which bin applies? A59G A94U
small value

For this variant, which bin applies? A24U U47C
large value
